Would you kindly list C max (mean ± SD) for each of these compounds?
Type: in vivo, human
Settings: patients, oral clopidogrel 75 mg for 7 days, plasma
Just the number in ng/mL, nothing appended.

Reported C max (mean ± SD) for COC(=O)[C@H](c1ccccc1Cl)N1CCC(S)/C(=C\C(=O)O)C1 (stereo partly shown) : what is it? 7.13

Name the recorded C max (mean ± SD) for COC(=O)[C@H](c1ccccc1Cl)N1CCc2sccc2C1 [Clopidogrel, (+)-S clopidogrel bisulfate, reference compound] . 2.04

What value of measured C max (mean ± SD) is listed for COC(=O)[C@H](c1ccccc1Cl)N1CC[C@H](S)/C(=C\C(=O)O)C1 ? 5.29

====

Type: in vivo, human
Conditions: human, plasma, po, 75 mg
Parameter Measured: AUC(0-inf)
Write the figure, then the unit, nothing else.

Please give the measured AUC(0-inf) for this compound: COC(=O)[C@H](c1ccccc1Cl)N1CCc2sccc2C1 [Clopidogrel, (+)-S clopidogrel bisulfate, reference compound] 6.29 ng·h/mL

====

Type: in vivo, human
Settings: patients, single oral clopidogrel 300 mg loading dose, plasma
Parameter Measured: C max (mean ± SD) (ng/mL)
Only the number, expressed in ng/mL, is required.

Any idea what its C max (mean ± SD) is? The compound is COC(=O)[C@H](c1ccccc1Cl)N1CC[C@H](S)/C(=C\C(=O)O)C1 8.47

# query: C max (mean ± SD) of entry COC(=O)[C@H](c1ccccc1Cl)N1CCC(S)/C(=C\C(=O)O)C1 (stereo partly shown) 17.92

Dear colleague, I am looking for the recorded C max (mean ± SD) of the following compound: COC(=O)[C@H](c1ccccc1Cl)N1CCc2sccc2C1 [Clopidogrel, (+)-S clopidogrel bisulfate, reference compound] 4.51

====

Format: in vivo, human
Settings: human, plasma, po, 75 mg
Parameter Measured: AUC(0-t)
Dear colleague, please send the value followed by its unit.

Value lookup for AUC(0-t); key = COC(=O)[C@H](c1ccccc1Cl)N1CCc2sccc2C1 [Clopidogrel, (+)-S clopidogrel bisulfate, reference compound] 5.07 ng·h/mL

====

Format: in vivo, human
Details: human, plasma, po, 75 mg
Parameter Measured: Vd/F
Answers without a unit are incomplete; give the number and then its unit.

Endpoint output: Vd/F of COC(=O)[C@H](c1ccccc1Cl)N1CCc2sccc2C1 [Clopidogrel, (+)-S clopidogrel bisulfate, reference compound] . Value? 39200 L

====

Type: in vivo, human
Details: human, plasma, po, 300 mg
Parameter Measured: half-life (h)
Record the value in h, omitting the unit from your answer.

May I ask what half-life has been recorded for COC(=O)[C@H](c1ccccc1Cl)N1CCc2sccc2C1 [Clopidogrel, (+)-S clopidogrel bisulfate, reference compound] ? 1.99

====

Format: in vivo, human
Details: human, plasma, po, 75 mg
Parameter Measured: half-life (h)
Answer in h, number only, no unit symbol.

Reported half-life, molecule COC(=O)[C@H](c1ccccc1Cl)N1CCc2sccc2C1 [Clopidogrel, (+)-S clopidogrel bisulfate, reference compound] : ____ 1.71

====

Assay type: in vivo, human
Settings: patients, single oral clopidogrel 300 mg, plasma
For each entry below, report its t max (mean ± SD) value.
Lab book: enter the figure in h, no units written.

Recorded t max (mean ± SD) for COC(=O)[C@H](c1ccccc1Cl)N1CC[C@H](S)/C(=C\C(=O)O)C1 [H3] , please? 0.83

Request the reported t max (mean ± SD) associated with O=C(O)[C@H](c1ccccc1Cl)N1CCc2sccc2C1 [CLPM] 1.61

Which t max (mean ± SD) reading was recorded for the compound COC(=O)[C@H](c1ccccc1Cl)N1CCC(S)/C(=C\C(=O)O)C1 (stereo partly shown) [H4] ? 0.83

Look up t max (mean ± SD) for this compound: COC(=O)[C@H](c1ccccc1Cl)N1CCc2sccc2C1 [Clopidogrel, (+)-S clopidogrel bisulfate, reference compound] 1.17
